Measured Monocyte MFI by item
# target-desc: T1, human CD33 (human, UniProt P20138 18-364)
# T1 construct: CD33 on human primary dendritic cells, macrophages, monocytes and T cells and on CHO cells expressing recombinant human CD33; also called Siglec-3; hCD33
# T1 sequence (P20138 18-364): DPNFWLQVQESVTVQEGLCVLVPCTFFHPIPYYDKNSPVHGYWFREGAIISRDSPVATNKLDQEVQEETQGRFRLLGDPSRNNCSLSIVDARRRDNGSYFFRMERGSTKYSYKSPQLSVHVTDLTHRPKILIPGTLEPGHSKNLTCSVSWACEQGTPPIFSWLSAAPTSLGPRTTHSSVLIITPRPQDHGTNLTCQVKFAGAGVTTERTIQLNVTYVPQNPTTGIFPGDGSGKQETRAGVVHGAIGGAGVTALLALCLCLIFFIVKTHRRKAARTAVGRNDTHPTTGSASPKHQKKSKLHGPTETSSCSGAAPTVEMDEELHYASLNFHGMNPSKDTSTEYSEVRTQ
# method: flow cytometry, human primary monocytes;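 further: binding of anti-CD33 antibodies at 10 ug/ml to human primary monocytes, 1 h on ice, detected by PE-labelled secondary antibody, flow cytometry readout as mean fluorescence intensity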
# Design: reference not given here

- binder: "C-41 (antibody, V domains shown, human IgG1) VH: QLQLQESGPGLVKPSETLSLTCTVSGGSISSSSYYWGWIRQPPGKGLEWIGSISYSGSTYYNPSLKSRVTISVDTSKNQFSLKLSSVTAADTAVYYCAREGGKGMDVWGQGTLVTVSS VL: EIVLTQSPGTLSLSPGERATLSCRASQSVSSSFLAWYQQKPGQAPRLLIYGASSRATGIPDRFSGSGSGTDFTLTISRLEPEDFAVYYCQQFGDLPTFGGGTKVEIK"
  Monocyte MFI: 180
- binder: "C-28 (antibody, V domains shown, human IgG1) VH: EVQLVESGGGLVQPGGSLRLSCAASGFTFSSYWMSWVRQAPGKGLEWVANINQDGSEKYYVDSVKGRFTISRDNAKNSLYLQMNSLRAEDTAVYYCAREGRRTMNAFDIWGQGTMVTVSS VL: DIQMTQSPSSLSASVGDRVTITCRASQSISSYLNWYQQKPGKAPKLLIYGASSLQSGVPSRFSGSGSGTDFTLTISSLQPEDFATYYCQQGYDVPITFGGGTKVEIK"
  Monocyte MFI: 143
- binder: "C-19 (antibody, V domains shown, human IgG1) VH: QLQLQESGPGLVKPSETLSLTCTVSGGSISSSSYAWGWIRQPPGKGLEWIGSIYYSGSTYYNPSLKSRVTISVDTSKNQFSLKLSSVTAADTAVYYCARVGYTRPYGMDVWGQGTTVTVSS VL: DIQMTQSPSSVSASVGDRVTITCRASQGISSWLAWYQQKPGKAPKLLIYAASSLQSGVPSRFSGSGSGTDFTLTISSLQPEDFATYYCQQINAHPTFGGGTKVEIK"
  Monocyte MFI: 182

This collection of values is drawn from patent US20220281976A1.
